Values compiled from ChEMBL document CHEMBL5126654.

Test system: Bombyx mori
Assay: Insecticidal activity against third instar larvae of Bombyx mori (silkworm) measured after 24 hrs
Assay type: functional

[
  {
    "compound": "CO[C@@H]1[C@]2(O)c3cc(O)ccc3N3C(C)(C)[C@H](C)[C@]32N2C(=O)/C3=C/c4c([nH]c5cc(Cl)ccc45)C(C)(C)/C=C\\N3C(=O)[C@]12O",
    "unitString": "mg/kg",
    "signQualifier": "=",
    "LD50": 0.61
  },
  {
    "compound": "CO[C@@H]1[C@]2(O)c3cc(O)ccc3N3C(C)(C)[C@H](CO)[C@]32N2C(=O)/C3=C/c4c([nH]c5ccccc45)C(C)(C)/C=C\\N3C(=O)[C@]12O",
    "unitString": "mg/kg",
    "signQualifier": ">",
    "LD50": 100
  },
  {
    "compound": "CO[C@@H]1[C@]2(O)c3cccc(O)c3N3C(C)(C)[C@H](C)[C@]32N2C(=O)/C3=C/c4c([nH]c5cc(Cl)ccc45)C(C)(C)/C=C\\N3C(=O)[C@]12O",
    "unitString": "mg/kg",
    "signQualifier": "=",
    "LD50": 7.56
  },
  {
    "compound": "CO[C@@H]1[C@]2(O)c3cc(O)ccc3N3C(C)(C)[C@H](C)[C@]32N2C(=O)/C3=C/c4c([nH]c5ccccc45)C(C)(C)/C=C\\N3C(=O)[C@]12O",
    "unitString": "mg/kg",
    "signQualifier": "=",
    "LD50": 0.07
  },
  {
    "compound": "CO[C@@H]1[C@]2(O)c3cc(O)ccc3N3C(C)(C)[C@H](CO)[C@]32N2C(=O)/C3=C/c4c([nH]c5cc(Cl)ccc45)C(C)(C)/C=C\\N3C(=O)[C@]12O",
    "unitString": "mg/kg",
    "signQualifier": ">",
    "LD50": 100
  },
  {
    "compound": "C=C(C)[C@H]1Cc2c(ccc3c2O[C@@H]2COc4cc(OC)c(OC)cc4[C@@H]2C3=O)O1 [ROTENONE]",
    "unitString": "mg/kg",
    "signQualifier": "=",
    "LD50": 37.8
  }
]
